assayed target: human PTHR, G protein-uncoupled conformation (R^0) (Homo sapiens)
Construct: expressed in transfected cells; host or cells: COS-7, transient (Fugene-6)
Sequence (Q03431 27-593): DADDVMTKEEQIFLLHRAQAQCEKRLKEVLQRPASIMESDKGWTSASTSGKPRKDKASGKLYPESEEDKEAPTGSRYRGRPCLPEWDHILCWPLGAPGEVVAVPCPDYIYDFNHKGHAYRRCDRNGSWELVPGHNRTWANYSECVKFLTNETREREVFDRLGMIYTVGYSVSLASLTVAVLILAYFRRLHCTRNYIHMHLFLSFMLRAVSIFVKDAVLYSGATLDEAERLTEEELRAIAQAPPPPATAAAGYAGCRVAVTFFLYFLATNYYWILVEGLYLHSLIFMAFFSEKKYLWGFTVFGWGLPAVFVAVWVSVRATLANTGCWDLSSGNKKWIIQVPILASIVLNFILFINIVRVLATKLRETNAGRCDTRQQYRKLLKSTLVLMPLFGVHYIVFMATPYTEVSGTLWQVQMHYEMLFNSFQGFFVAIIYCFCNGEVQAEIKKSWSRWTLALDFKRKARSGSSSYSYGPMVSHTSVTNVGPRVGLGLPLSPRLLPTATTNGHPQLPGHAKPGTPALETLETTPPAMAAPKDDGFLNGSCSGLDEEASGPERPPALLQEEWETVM
experiment summary: Competition binding to R0 conformation of hPTHR (COS-7 membranes, GTPγS, 125I-PTH(1-34) tracer); further: test concentration or dose not given here
recorded conditions: parent PTHrP(1-28)NH
Ends that are not written are not given here.
property measured: screen human PIR R0 (% parent)
Answers are plain numbers, in % parent.

[[record]]
substance = "E18,L22,A26-PTHrP(1-28) (AVSEHQLLHDKGKSIQDERRRLFLHALI-NH2) [E18, L22, A26-PTHrP(1-28)NH]"
readout_units = "% parent"
reported_value = 52.5

[[record]]
substance = "E18,N22,A26-PTHrP(1-28) (AVSEHQLLHDKGKSIQDERRRNFLHALI-NH2) [E18, N22, A26-PTHrP(1-28)NH]"
readout_units = "% parent"
reported_value = 53.7


Dear reader, for each entry below, please note its screen human PIR R0 (% parent).
1. A18,26,L22-PTHrP(1-28) (AVSEHQLLHDKGKSIQDARRRLFLHALI-NH2) [A18, 26, L22-PTHrP(1-28)NH]
2. A18,N22,K26-PTHrP(1-28) (AVSEHQLLHDKGKSIQDARRRNFLHKLI-NH2) [A18, N22, K26-PTHrP(1-28)NH]
3. A18,26,N22-PTHrP(1-28) (AVSEHQLLHDKGKSIQDARRRNFLHALI-NH2) [A18, 26, N22-PTHrP(1-28)NH]
4. A18,22,26-PTHrP(1-28) (AVSEHQLLHDKGKSIQDARRRAFLHALI-NH2) [A18, 22, 26-PTHrP(1-28)NH]
5. E18,W22,K26-PTHrP(1-28) (AVSEHQLLHDKGKSIQDERRRWFLHKLI-NH2) [E18, W22, K26-PTHrP(1-28)NH]

1. 133
2. 139
3. 136
4. 160
5. 46.6

----------
What screen cAMP (% parent) was measured for each of the following?
Tested on: LLCPK1-B64 cells or SaOS-2 cells
experiment summary: cAMP screen of substituted PTHrP(1-28) analogs (% parent)
Assay type: cell-based
recorded conditions: parent PTHrP(1-28)NH
Ends that are not written are not given here.
Answers are plain numbers, in % parent.

Solved entries (count: 2):
[[record]]
substance = "K22-PTHrP(1-28) (AVSEHQLLHDKGKSIQDLRRRKFLHHLI-NH2) [K22-PTHrP(1-28)NH]"
assayed_target = "LLCPK1-B64 cells or SaOS-2 cells"
property_measured = "screen cAMP (% parent)"
readout_units = "% parent"
reported_value = 150

[[record]]
substance = "L22-PTHrP(1-28) (AVSEHQLLHDKGKSIQDLRRRLFLHHLI-NH2) [L22-PTHrP(1-28)NH]"
assayed_target = "LLCPK1-B64 cells or SaOS-2 cells"
property_measured = "screen cAMP (% parent)"
readout_units = "% parent"
reported_value = 142


Using the record for E18,S22,K25,26-PTHrP(1-28) (AVSEHQLLHDKGKSIQDERRRSFLKKLI-NH2) [E18, S22, K25, 26-PTHrP(1-28)NH] , report its screen cAMP (% parent).
335

----------
assayed target: human PTHR, G protein-coupled conformation (RG) (Homo sapiens)
Construct: expressed in transfected cells; host or cells: COS-7, transient (Fugene-6); membranes
Sequence (Q03431 27-593): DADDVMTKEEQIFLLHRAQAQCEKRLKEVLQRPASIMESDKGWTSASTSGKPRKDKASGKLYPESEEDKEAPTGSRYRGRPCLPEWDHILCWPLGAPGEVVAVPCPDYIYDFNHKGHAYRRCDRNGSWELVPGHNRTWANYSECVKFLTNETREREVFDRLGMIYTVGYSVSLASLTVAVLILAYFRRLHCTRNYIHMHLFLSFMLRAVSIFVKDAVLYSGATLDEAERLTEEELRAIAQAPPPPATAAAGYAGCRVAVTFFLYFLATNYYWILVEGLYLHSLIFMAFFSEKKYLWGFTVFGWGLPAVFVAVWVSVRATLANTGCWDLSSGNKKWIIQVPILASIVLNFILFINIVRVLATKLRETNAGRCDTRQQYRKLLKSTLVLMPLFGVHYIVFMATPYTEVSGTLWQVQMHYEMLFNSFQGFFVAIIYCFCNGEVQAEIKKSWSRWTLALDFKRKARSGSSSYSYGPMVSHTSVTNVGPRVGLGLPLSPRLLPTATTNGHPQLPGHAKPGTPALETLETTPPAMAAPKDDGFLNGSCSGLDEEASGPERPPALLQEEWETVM
experiment summary: Competition binding to RG conformation of hPTHR (COS-7 membranes, GαsND, 125I-[Aib1,3,M]PTH(1-15) tracer); further: test concentration or dose not given here
recorded conditions: parent PTHrP(1-28)NH
Ends that are not written are not given here.
property measured: screen human PIR RG (% parent)
Answers are plain numbers, in % parent.

[[record]]
substance = "A18,26,L22-PTHrP(1-28) (AVSEHQLLHDKGKSIQDARRRLFLHALI-NH2) [A18, 26, L22-PTHrP(1-28)NH]"
property_measured = "screen human PIR RG (% parent)"
reported_value = 163

[[record]]
substance = "A18,22,26-PTHrP(1-28) (AVSEHQLLHDKGKSIQDARRRAFLHALI-NH2) [A18, 22, 26-PTHrP(1-28)NH]"
property_measured = "screen human PIR RG (% parent)"
reported_value = 167


Next, consider the following substance.
Return reported screen human PIR RG (% parent); argument: E18,L22,K26-PTHrP(1-28) (AVSEHQLLHDKGKSIQDERRRLFLHKLI-NH2) [E18, L22, K26-PTHrP(1-28)NH]
152
